# target desc: Human immunodeficiency virus type 1 integrase (Human immunodeficiency virus 1, UniProt Q7ZJM1)
# Sequence (Q7ZJM1 whole entry): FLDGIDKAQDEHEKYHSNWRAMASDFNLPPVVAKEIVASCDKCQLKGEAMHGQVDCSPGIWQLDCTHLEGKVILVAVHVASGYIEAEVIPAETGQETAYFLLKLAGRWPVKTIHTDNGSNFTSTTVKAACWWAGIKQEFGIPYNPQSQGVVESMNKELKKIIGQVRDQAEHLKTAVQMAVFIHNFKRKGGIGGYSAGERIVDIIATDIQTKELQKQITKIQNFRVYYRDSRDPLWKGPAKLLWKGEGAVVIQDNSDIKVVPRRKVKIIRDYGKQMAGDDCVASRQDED
# protocol: Inhibition of HIV1 recombinant integrase strand transfer activity using [32P]-labeled oligonucleotide a substrate after 30 mins by electrophoretic analysis
Hi! Could you tag entries with IC50 below 200 nM as yes, and those at or above as no? Much appreciated.

Answered cases to consult:
[[record]]
input_smiles = "O=C1c2c(O)c(O)cc(S(=O)(=O)NCCCBr)c2CN1Cc1ccc(F)c(Cl)c1"
answer_label = "yes"

[[record]]
input_smiles = "Cc1cc2c(c(O)c1O)C(=O)N(Cc1ccc(F)c(Cl)c1)C2"
answer_label = "no"


# input Threshold test, IC50 < 200 nM: "CN(C)CCCNS(=O)(=O)c1cc(O)c(O)c2c1CN(Cc1ccc(F)c(Cl)c1)C2=O"
# output no

# input And the next one, "CNS(=O)(=O)c1cc(O)c(O)c2c1CN(Cc1ccc(F)c(Cl)c1)C2=O" ?
# output yes

# input What would you report for "CN(C)S(=O)(=O)c1ccc(-c2c(O)c(O)c3c(c2S(=O)(=O)N(C)C)CN(Cc2ccc(F)c(Cl)c2)C3=O)cc1" ?
# output no

# input Also, "CN(C)S(=O)(=O)c1ccc(-c2cc3c(c(O)c2O)C(=O)N(Cc2ccc(F)c(Cl)c2)C3)cc1" please.
# output no

# input Ok, now "O=C1c2c(cc(O)c(O)c2O)CN1Cc1ccc(F)c(Cl)c1"
# output no

# input Field entry: "CN1CCN(S(=O)(=O)c2cc(O)c(O)c3c2CN(Cc2ccc(F)c(Cl)c2)C3=O)CC1"
# output no

###

# target desc: Human immunodeficiency virus type 1 integrase (Human immunodeficiency virus 1, UniProt Q7ZJM1)
# protocol: Inhibition of HIV1 recombinant integrase 3' processing activity using [32P]-labeled oligonucleotide a substrate after 30 mins by electrophoretic analysis
measure name: pIC50
Give bare numbers, as −log10 of the molar value.

# example entries with known answers
[[record]]
input_smiles = "CN(C)S(=O)(=O)c1ccc(-c2c(O)c(O)c3c(c2S(=O)(=O)N(C)C)CN(Cc2ccc(F)c(Cl)c2)C3=O)cc1"
measure_name = "pIC50"
recorded_value = 4.45

[[record]]
input_smiles = "O=C1c2c(cc(O)c(O)c2O)CN1Cc1ccc(F)c(Cl)c1"
measure_name = "pIC50"
recorded_value = 4.44

[[record]]
input_smiles = "CN(C)S(=O)(=O)c1c(O)c(O)c(O)c2c1CN(Cc1ccc(F)c(Cl)c1)C2=O"
measure_name = "pIC50"
recorded_value = 5.12


# input Would you kindly share the measured pIC50 for "O=C1c2c(O)c(O)cc(S(=O)(=O)NCCN3CCNCC3)c2CN1Cc1ccc(F)c(Cl)c1" ?
# output 4.71

###

For each of the compounds below, state its IC50.
# target desc: Human immunodeficiency virus type 1 integrase (Human immunodeficiency virus 1)
# protocol: Inhibition of HIV1 recombinant integrase 3' processing activity using [32P]-labeled oligonucleotide a substrate after 30 mins by electrophoretic analysis

Record IC50 for all entries; do not skip any.
1. O=C1c2c(cc(-c3ccccc3)c(O)c2O)CN1Cc1ccc(F)c(Cl)c1
2. CC(C)c1cc2c(c(O)c1O)C(=O)N(Cc1ccc(F)c(Cl)c1)C2
3. CCCCc1c(O)c(O)c2c(c1S(=O)(=O)N(C)C)CN(Cc1ccc(F)c(Cl)c1)C2=O
4. Cc1cc2c(c(O)c1O)C(=O)N(Cc1ccc(F)c(Cl)c1)C2

# output
> 111 µM
> 111 µM
> 111 µM
> 111 µM
